- system: 5-LO (Homo sapiens, UniProt P09917)
- Construct: incubating a test compound with heparinised human blood, prior to challenge with the calcium ionophore A23187; endogenous in cells
- Sequence (P09917 1-674): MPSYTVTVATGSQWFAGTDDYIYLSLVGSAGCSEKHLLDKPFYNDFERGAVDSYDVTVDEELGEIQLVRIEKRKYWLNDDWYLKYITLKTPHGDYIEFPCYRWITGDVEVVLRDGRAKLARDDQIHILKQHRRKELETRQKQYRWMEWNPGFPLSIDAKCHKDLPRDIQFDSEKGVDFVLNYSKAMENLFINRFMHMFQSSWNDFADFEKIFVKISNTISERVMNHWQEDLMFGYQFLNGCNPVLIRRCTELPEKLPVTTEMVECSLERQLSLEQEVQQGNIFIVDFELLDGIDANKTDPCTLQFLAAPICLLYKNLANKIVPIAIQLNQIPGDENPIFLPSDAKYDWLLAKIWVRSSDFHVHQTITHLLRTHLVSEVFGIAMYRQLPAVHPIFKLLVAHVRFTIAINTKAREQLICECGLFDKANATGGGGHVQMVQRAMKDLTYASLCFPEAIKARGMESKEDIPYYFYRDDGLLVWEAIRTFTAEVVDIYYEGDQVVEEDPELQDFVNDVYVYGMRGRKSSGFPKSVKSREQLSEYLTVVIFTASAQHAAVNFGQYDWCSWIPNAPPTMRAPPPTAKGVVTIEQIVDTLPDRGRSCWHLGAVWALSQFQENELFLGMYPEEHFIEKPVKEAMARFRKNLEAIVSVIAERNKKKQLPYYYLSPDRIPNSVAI
- experimental_protocol: Test b) heparinised human blood challenged with A23187, LTB4 radioimmunoassay (5-LO)
- study_conditions: read-out: IC50 against LTB4
quantity_kind: pIC50
Worth noting: pIC50 values are minus log10 of concentrations stated in mol/L.

If you can, please state the reported pIC50 value of CO[C@H]1CCC[C@@]1(OC)c1cccc(OCC#Cc2ccccn2)c1 (relative stereo) .
5.10

meta.source: patent US5446043A
